Provenance of the data: PubChem BioAssay (NCATS)

Molecular target: Cytochrome P450 3A4 (Homo sapiens)
Experiment: qHTS Assay for Inhibitors and Substrates of Cytochrome P450 3A4 (AID 884); note: nearly all actives have a fitted effect of over 50% in size
Conditions: recombinant CYP3A4, Luciferin-PPXE luminescence; series mostly up to 57.1 µM
Results filed as inconclusive are left out. Calls of active or inactive are those of the source. Calls come from the whole dose curve; as a rule, active = well fitted inhibition curve with a large enough effect; inconclusive = small, poorly fitted or top-dose-only effect; inactive = no such curve, though single readings can be large or run the other way.
Allowed answers: active, inactive

                                   compound  group_label
0  CO[C@H]1COC(=O)[C@H](C)NC(=O)C/C=C\[C@@H](C)[C@@H](NS(=O)(=O)c2ccc(C)cc2)COC(=O)[C@H](OCc2ccccc2)/C=C\[C@@H]1C       active

Tell me the recorded outcome of this test for COC(=O)[C@@]1(Cc2ccccc2)C=C[C@@H](C)N1C(=O)c1ccccc1 .
inactive
